TESTED TARGET: hα2A receptor (Homo sapiens)
Construct: expressed in transfected cells
METHOD DESCRIPTION: Radioligand binding experiment for α2A-adrenergic receptor ([3H]-raulwolscine)
CONDITION DESCRIPTION: hα2A (pIC50), CHO cell membranes with human α2A receptor, [3H]raulwolscine 1 nM
The reader will find reported IC50 values listed item by item below.
// units = nM; emit number, no label

Illustrative cases are given below, each with its answer.
# COMPOUND, UNITS LABEL, IC50
rows = [
    ("C/C(=C\\c1ccccc1)CN1CCN(C[C@@H]2ON=C3c4cc5cc[nH]c5cc4OC[C@H]32)CC1 (relative stereo)", "nM", 5.01),
    ("COC(=O)Cn1ccc2cc3c(cc21)OCC1C3=NOC1CN1CCN(C/C(C)=C/c2ccccc2)CC1 (stereo not shown)", "nM", 12.6),
    ("C/C(=C\\c1ccccc1)CN1CCN(CC2ON=C3c4cc5ccn(CCO)c5cc4OCC32)CC1 (single isomer, unassigned) [Compound 17]", "nM", 10),
    ("C/C(=C\\c1ccccc1)CN1CCN(CC2ON=C3c4cc5ccn(CCO)c5cc4OCC32)CC1 (stereo not shown) [Compound 8]", "nM", 15.8),
    ("C/C(=C\\c1ccccc1)CN1CCN(CC2ON=C3c4cc5ccn(CCO)c5cc4OCC32)CC1 (single isomer, unassigned) [Compound 16]", "nM", 316),
    ("C/C(=C\\c1ccccc1)CN1CCN(CC2ON=C3c4cc5ccn(C)c5cc4OCC32)CC1 (stereo not shown)", "nM", 3.16),
]

Entry under test: CC(=O)n1ccc2cc3c(cc21)OCC1C3=NOC1CN1CCN(C/C(C)=C/c2ccccc2)CC1 (stereo not shown) . Its IC50 was 2.51

* * *

The reader will find reported hα2A (pIC50) values listed item by item below.
TESTED TARGET: hα2A receptor (Homo sapiens, UniProt P08913)
Construct: expressed in transfected cells
Sequence (P08913 1-465): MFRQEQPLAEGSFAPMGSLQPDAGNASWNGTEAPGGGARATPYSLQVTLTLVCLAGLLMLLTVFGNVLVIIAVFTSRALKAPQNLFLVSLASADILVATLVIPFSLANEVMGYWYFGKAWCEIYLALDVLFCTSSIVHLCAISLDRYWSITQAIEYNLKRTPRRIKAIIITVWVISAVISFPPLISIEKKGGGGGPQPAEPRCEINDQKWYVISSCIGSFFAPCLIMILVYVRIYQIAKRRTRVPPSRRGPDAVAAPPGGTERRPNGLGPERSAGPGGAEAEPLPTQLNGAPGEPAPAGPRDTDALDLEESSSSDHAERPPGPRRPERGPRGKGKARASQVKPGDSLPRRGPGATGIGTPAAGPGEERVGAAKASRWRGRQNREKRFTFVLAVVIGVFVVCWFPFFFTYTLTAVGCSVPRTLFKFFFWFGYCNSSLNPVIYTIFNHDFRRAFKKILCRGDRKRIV
METHOD DESCRIPTION: Radioligand binding experiment for α2A-adrenergic receptor ([3H]-raulwolscine)
CONDITION DESCRIPTION: CHO cell membranes with human α2A receptor, [3H]raulwolscine 1 nM
Number only, no unit.

Illustrative cases are given below, each with its answer.
# MOLECULE, READOUT TYPE, NUMERIC READOUT
rows = [
    ("C/C(=C\\c1ccc(F)cc1)CN1CCN(CC2ON=C3c4cc5cc[nH]c5cc4OCC32)CC1 (racemic) [Compound 3]", "hα2A (pIC50)", 7.8),
    ("C/C(=C\\c1ccc(F)cc1)CN1CCN(CC2ON=C3c4ccncc4OCC32)CC1.O=C(O)C(=O)O (racemic) [Compound 21]", "hα2A (pIC50)", 8.2),
    ("C/C(=C\\c1cccc(F)c1)CN1CCN(CC2ON=C3c4cc5cc[nH]c5cc4OCC32)CC1 (racemic) [Compound 2]", "hα2A (pIC50)", 8.1),
]

Entry under test: CC(=CCN1CCN(CC2ON=C3c4cc5cc[nH]c5cc4OCC32)CC1)c1ccccc1 (racemic) [Compound 6] . Its hα2A (pIC50) was 8.1
